# targetUnderTest: HDAC7 (Homo sapiens (Human))
# Sequence (Q8WUI4 whole entry, canonical isoform): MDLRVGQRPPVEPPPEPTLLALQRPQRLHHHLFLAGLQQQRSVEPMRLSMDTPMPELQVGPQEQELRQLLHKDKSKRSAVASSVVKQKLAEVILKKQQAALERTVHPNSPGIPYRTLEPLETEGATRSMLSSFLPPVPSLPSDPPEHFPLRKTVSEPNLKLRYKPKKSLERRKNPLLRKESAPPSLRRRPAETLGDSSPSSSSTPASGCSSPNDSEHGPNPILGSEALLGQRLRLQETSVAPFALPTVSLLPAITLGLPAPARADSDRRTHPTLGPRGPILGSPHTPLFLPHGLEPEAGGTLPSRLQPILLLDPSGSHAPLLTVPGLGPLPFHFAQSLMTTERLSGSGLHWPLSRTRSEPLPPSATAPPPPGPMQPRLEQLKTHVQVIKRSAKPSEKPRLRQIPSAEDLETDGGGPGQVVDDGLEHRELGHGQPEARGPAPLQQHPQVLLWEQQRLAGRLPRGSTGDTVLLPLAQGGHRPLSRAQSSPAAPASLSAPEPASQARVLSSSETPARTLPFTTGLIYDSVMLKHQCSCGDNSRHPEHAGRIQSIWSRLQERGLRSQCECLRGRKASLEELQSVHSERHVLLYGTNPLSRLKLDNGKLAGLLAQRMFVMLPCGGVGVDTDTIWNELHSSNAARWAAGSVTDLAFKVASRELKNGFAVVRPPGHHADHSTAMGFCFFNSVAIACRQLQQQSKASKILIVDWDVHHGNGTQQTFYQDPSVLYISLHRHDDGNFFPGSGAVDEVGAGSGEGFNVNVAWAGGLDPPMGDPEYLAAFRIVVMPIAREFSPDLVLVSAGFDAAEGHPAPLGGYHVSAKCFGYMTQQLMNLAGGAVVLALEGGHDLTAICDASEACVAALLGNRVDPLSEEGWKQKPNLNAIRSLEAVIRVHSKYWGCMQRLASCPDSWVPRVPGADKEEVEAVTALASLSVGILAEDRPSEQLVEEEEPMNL
# conditions: read-out: HDAC Isoform IC50 (μM) 7
reportedMetric: IC50

Reported HDAC7 (Homo sapiens (Human)) IC50 for item O=C(CCCCCCC(=O)Nc1ccc([C@H]2O[C@@H](CSc3nc(-c4ccccc4)c(-c4ccccc4)o3)C[C@@H](c3ccc(CO)cc3)O2)cc1)NO [Tubacin] was 9.7 µM

----------
# targetUnderTest: HDAC8 (Homo sapiens (Human))
# Sequence (Q9BY41 whole entry): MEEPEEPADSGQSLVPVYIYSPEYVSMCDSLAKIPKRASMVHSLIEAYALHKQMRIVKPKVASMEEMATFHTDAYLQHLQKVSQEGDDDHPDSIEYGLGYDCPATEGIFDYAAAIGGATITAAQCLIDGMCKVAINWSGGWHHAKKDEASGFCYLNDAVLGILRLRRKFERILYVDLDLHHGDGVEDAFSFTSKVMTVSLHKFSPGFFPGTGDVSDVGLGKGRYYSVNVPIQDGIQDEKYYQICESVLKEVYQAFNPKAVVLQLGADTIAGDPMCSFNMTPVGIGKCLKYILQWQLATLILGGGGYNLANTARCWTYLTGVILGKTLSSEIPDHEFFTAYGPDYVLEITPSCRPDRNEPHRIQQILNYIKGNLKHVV
# assayComment: HDAC8 inhibition assay (fluorogenic diacyl peptide)
# Assay type: biochemical
# conditions: average of two experiments; read-out: HDAC Isoform IC50 (μM) 8
Known IC50 of a selection of compounds
// return numeric value only (unit: µM, not printed)

O=C(NO)c1ccc(CN2CCCC2)cc1 [Compound 57] ... 1.2
CN1CCN(CCc2cn(Cc3ccc(C(=O)NO)cc3)c3ccccc23)CC1 [Compound 17] ... 0.174
Cc1cc2ccccc2n1Cc1ccc(C(=O)NO)cc1 [Compound 4] ... 0.397

Test item CN1CCN(CCc2cn(Cc3ccc(C(=O)NO)cc3)c3ccccc23)CC1 [drawing 142] ; HDAC8 (Homo sapiens (Human)); reported IC50 was 0.174

Ref: patent US9249087B2
